Experiment: Partition coefficient, log P of the compound
Type: physicochemical
Conditions: octanol/water; read-out: logP
Cut-off 2 on logP, inclusive. At or above means satisfied; below means not satisfied.

Consider the worked cases shown below.
[[record]]
smilesstring = "Cc1cc(C)c(Sc2ccnc(Nc3ccc(C#N)cc3)n2)c(C)c1"
grouplabel = "satisfied"

[[record]]
smilesstring = "Cc1cc(C)c(Nc2nc(Nc3ccc(C#N)cc3)ncc2C)c(C)c1"
grouplabel = "satisfied"

[[record]]
smilesstring = "Cc1cc(Br)cc(C)c1Sc1ccnc(Nc2ccc(C#N)cc2)n1"
grouplabel = "satisfied"

[[record]]
smilesstring = "Cc1cc(Cl)cc(Cl)c1Nc1ccnc(Nc2ccc(C#N)cc2)n1"
grouplabel = "not satisfied"

[[record]]
smilesstring = "C#Cc1cc(C)c(Oc2ccnc(Nc3ccc(C#N)cc3)n2)c(C)c1"
grouplabel = "not satisfied"


Check this compound for logP at or above 2: `Cc1cc(C#N)cc(C)c1Nc1nc(Nc2ccc(C#N)cc2)ncc1Br`
not satisfied

Check this compound for logP at or above 2: `Cc1cc(C#N)cc(C)c1Nc1nc(Nc2ccc(C#N)cc2)ncc1C#N`
not satisfied

Check this compound for logP at or above 2: `Cc1cc(C#N)cc(C)c1Oc1nc(Nc2ccc(C#N)cc2)nc(N)c1Br`
not satisfied

* * *

Tested on: Human immunodeficiency virus
Assay: Inhibition of HIV reverse transcriptase
observationType: EC50 (nM)
Entry rule: numbers only, all in nM.

# count of solved cases: 6
[[record]]
smilesstring = "Cc1cc(C#N)cc(C)c1Oc1nc(Nc2ccc(C#N)cc2)ncc1[N+](=O)[O-]"
observationtype = "EC50"
val = 18

[[record]]
smilesstring = "Cc1cc(C)c(Nc2nc(Nc3ccc(C#N)cc3)ncc2Cl)c(C)c1"
observationtype = "EC50"
val = 2.7

[[record]]
smilesstring = "Cc1cc(C)c(Nc2nc(Nc3ccc(C#N)cc3)ncc2Br)c(C)c1"
observationtype = "EC50"
val = 5.5

[[record]]
smilesstring = "Cc1cc(C#N)cc(C)c1Nc1nc(Nc2ccc(C#N)cc2)ncc1Cl"
observationtype = "EC50"
val = 1.2

[[record]]
smilesstring = "Cc1cc(Br)c(Nc2ccnc(Nc3ccc(C#N)cc3)n2)c(Br)c1"
observationtype = "EC50"
val = 0.7

[[record]]
smilesstring = "Cc1cc(Br)cc(C)c1Nc1ccnc(Nc2ccc(C#N)cc2)n1"
observationtype = "EC50"
val = 2.3


Given the molecule `Cc1cc(C#N)cc(C)c1Nc1nc(Nc2ccc(C#N)cc2)ncc1C#N` , write its reported EC50.
0.5

Given the molecule `Cc1cc(Cl)cc(C)c1Nc1ccnc(Nc2ccc(C#N)cc2)n1` , write its reported EC50.
2.1

Given the molecule `Cc1cc(Br)cc(C)c1Sc1ccnc(Nc2ccc(C#N)cc2)n1` , write its reported EC50.
5.7

Given the molecule `Cc1cc(C)c(Nc2nc(Nc3ccc(C#N)cc3)ncc2C)c(C)c1` , write its reported EC50.
1.7

Given the molecule `Cc1cc(C#N)cc(C)c1Oc1ccnc(Nc2ccc(C#N)cc2)n1` , write its reported EC50.
1.1

* * *

Experiment: Partition coefficient, log P of the compound
Assay type: physicochemical
Conditions: octanol/water; read-out: logP
The reader will find reported logP values listed item by item below.
Output: the number by itself.

# count of solved cases: 3
[[record]]
smilesstring = "Cc1cc(C#N)cc(C)c1Oc1nc(Nc2ccc(C#N)cc2)ncc1Cl"
val = 1.54

[[record]]
smilesstring = "Cc1cc(Br)cc(C)c1Oc1ccnc(Nc2ccc(C#N)cc2)n1"
val = 1.97

[[record]]
smilesstring = "Cc1cc(C#N)cc(C)c1Oc1nc(Nc2ccc(C#N)cc2)ncc1Br"
val = 1.82


Given the compound `Cc1cc(C)c(Nc2ccnc(Nc3ccc(C#N)cc3)n2)c(C)c1` , write its reported logP.
1.9

Given the compound `N#Cc1ccc(Nc2nccc(Nc3c(Br)cc(F)cc3Br)n2)cc1` , write its reported logP.
0.94

Given the compound `Cc1cc(Cl)cc(C)c1Nc1ccnc(Nc2ccc(C#N)cc2)n1` , write its reported logP.
1.52

Given the compound `C=Cc1cnc(Nc2ccc(C#N)cc2)nc1Nc1c(C)cc(C#N)cc1C` , write its reported logP.
2.36

Given the compound `Cc1cc(Br)cc(C)c1Nc1ccnc(Nc2ccc(C#N)cc2)n1` , write its reported logP.
1.79

* * *

Test: Partition coefficient, log P of the compound
Type: physicochemical
Details: octanol/water; read-out: logP
observationType: logP
Output: the number by itself.

[[record]]
smilesstring = "Cc1cc(C)c(Oc2ccnc(Nc3ccc(C#N)cc3)n2)c(C)c1"
val = 2.07

[[record]]
smilesstring = "Cc1cc(C)c(Nc2nc(Nc3ccc(C#N)cc3)ncc2Br)c(C)c1"
val = 2.07

[[record]]
smilesstring = "Cc1cccc(C)c1Nc1ccnc(Nc2ccc(C#N)cc2)n1"
val = 1.74

[[record]]
smilesstring = "Cc1cc(C#N)cc(C)c1Oc1ccnc(Nc2ccc(C#N)cc2)n1"
val = 1.64


Given the molecule `C#Cc1cnc(Nc2ccc(C#N)cc2)nc1Nc1c(C)cc(C)cc1C` , write its reported logP.
1.89

Given the molecule `Cc1cc(C#N)cc(C)c1Oc1nc(Nc2ccc(C#N)cc2)ncc1N` , write its reported logP.
0.05

Given the molecule `Cc1cc(Br)c(Nc2ccnc(Nc3ccc(C#N)cc3)n2)c(Br)c1` , write its reported logP.
1.69

* * *

Test system: Human immunodeficiency virus
Test: Inhibition of HIV reverse transcriptase
The reader will find reported EC50 values listed item by item below.
Entry rule: numbers only, all in nM.

[[record]]
compound = "N#Cc1ccc(Nc2nccc(Nc3c(Br)cc(F)cc3Br)n2)cc1"
val = 0.6

[[record]]
compound = "Cc1cc(C#N)cc(C)c1Oc1nc(Nc2ccc(C#N)cc2)nc(N)c1Br [ETRAVIRINE]"
val = 1.4

[[record]]
compound = "C=Cc1cnc(Nc2ccc(C#N)cc2)nc1Nc1c(C)cc(C#N)cc1C"
val = 2.5

[[record]]
compound = "Cc1cc(Br)cc(C)c1Oc1ccnc(Nc2ccc(C#N)cc2)n1"
val = 2.9

[[record]]
compound = "N#Cc1ccc(Nc2nccc(Nc3c(Cl)cc(Cl)cc3Cl)n2)cc1"
val = 0.7

[[record]]
compound = "Cc1cc(C)c(Sc2ccnc(Nc3ccc(C#N)cc3)n2)c(C)c1"
val = 3.6

[[record]]
compound = "Cc1cc(Cl)cc(Cl)c1Nc1ccnc(Nc2ccc(C#N)cc2)n1"
val = 1

[[record]]
compound = "Cc1cnc(Nc2ccc(C#N)cc2)nc1Nc1c(C)cc(C#N)cc1C"
val = 0.8


Provide measured EC50 on Human immunodeficiency virus for `Cc1cc(C#N)cc(C)c1Oc1nc(Nc2ccc(C#N)cc2)ncc1Cl` please.
1.4

Provide measured EC50 on Human immunodeficiency virus for `Cc1cccc(C)c1Nc1ccnc(Nc2ccc(C#N)cc2)n1` please.
0.7

Provide measured EC50 on Human immunodeficiency virus for `Cc1cc(C#N)cc(C)c1Nc1nc(Nc2ccc(C#N)cc2)ncc1Br` please.
0.4

Provide measured EC50 on Human immunodeficiency virus for `Cc1cc(C#N)cc(C)c1Oc1nc(Nc2ccc(C#N)cc2)ncc1N` please.
1

Provide measured EC50 on Human immunodeficiency virus for `Cc1cc(C#N)cc(C)c1Nc1ccnc(Nc2ccc(C#N)cc2)n1` please.
0.4

Provide measured EC50 on Human immunodeficiency virus for `Cc1cc(C)c(Nc2nc(Nc3ccc(C#N)cc3)ncc2C#N)c(C)c1` please.
1

Provide measured EC50 on Human immunodeficiency virus for `Cc1cc(C#N)cc(C)c1Oc1nc(Nc2ccc(C#N)cc2)ncc1Br` please.
1.4

Provide measured EC50 on Human immunodeficiency virus for `C#Cc1cc(C)c(Oc2ccnc(Nc3ccc(C#N)cc3)n2)c(C)c1` please.
5.5

Provide measured EC50 on Human immunodeficiency virus for Cc1cc(C)c(Nc2ccnc(Nc3ccc(C#N)cc3)n2)c(C)c1 [DAPIVIRINE] please.
1

Provide measured EC50 on Human immunodeficiency virus for `Cc1cc(C)c(Oc2ccnc(Nc3ccc(C#N)cc3)n2)c(C)c1` please.
2.9

* * *

Assay: Partition coefficient, log P of the compound
Format: physicochemical
Conditions: octanol/water; read-out: logP
observationType: logP
Output: the number by itself.

[[record]]
smilesstring = "CC(=O)Nc1cnc(Nc2ccc(C#N)cc2)nc1Oc1c(C)cc(C#N)cc1C"
observationtype = "logP"
val = -0.12

[[record]]
smilesstring = "Cc1cnc(Nc2ccc(C#N)cc2)nc1Nc1c(C)cc(C#N)cc1C"
observationtype = "logP"
val = 1.74


Then this molecule:
Given the molecule `Cc1cc(C)c(Nc2nc(Nc3ccc(C#N)cc3)ncc2Cl)c(C)c1` , write its reported logP.
1.8

* * *

Assay: Partition coefficient, log P of the compound
Format: physicochemical
Conditions: octanol/water; read-out: logP
observationType: logP
Output: the number by itself.

# count of solved cases: 3
[[record]]
smilesstring = "Cc1cc(C#N)cc(C)c1Nc1nc(Nc2ccc(C#N)cc2)ncc1Cl"
val = 1.37

[[record]]
smilesstring = "N#Cc1ccc(Nc2nccc(Nc3c(Cl)cc(Cl)cc3Cl)n2)cc1"
val = 0.77

[[record]]
smilesstring = "Cc1cc(C#N)cc(C)c1Nc1ccnc(Nc2ccc(C#N)cc2)n1"
val = 1.47


Then this compound:
Given the compound `Cc1cc(C)c(Nc2nc(Nc3ccc(C#N)cc3)ncc2C#N)c(C)c1` , write its reported logP.
1.74
